Tested on: EKVX NSCLC
assay.name: NCI tumour cell line growth inhibition, 48 h
quantity: GI50

## Input # query: GI50 of entry C=C1c2nc3ccccc3n2C=C(c2cccc(Cl)c2)N1Cc1ccc(OC)cc1
## Output 1.07 µM

## Input Entry Oc1ccc2c(=S)cc(-c3ccc(Br)cc3)oc2c1O please
## Output 17.9 µM

## Input Now consider O=C1C=C(NCCO)c2nccc3c2c1nc1ccccc13 .
## Output 26.5 µM

## Input Queued: CNC(=O)ON(C(C)=O)C(=O)NC
## Output 108 µM

## Input What do you get for CN(C)c1ccc(/C=C(\C#N)c2cc3ccccc3[nH]2)cc1 ?
## Output 2.94 µM

## Input And what about the compound CC12OC(CC(O)C1O)n1c3ccccc3c3c4c(c5c6ccccc6n2c5c31)C(=O)N(CCN1CCOCC1)C4=O (stereo unspecified) ?
## Output 1.48 µM
